Tested on: Staphylococcus aureus ATCC 12600
readout-kind: MIC (µg/mL)
# value in µg/mL; strip the unit string

Study these solved cases before continuing.
COC(=O)N/C=C/CCC(C)c1cc(O)c(C(=O)C(C)=Cc2ccc(OCC(F)(F)F)cc2)c(=O)o1 (mixture of isomers) | 2
COC(=O)N/C=C/CCCc1cc(O)c(C(=O)C(C)=Cc2ccc(CCC(C)C)s2)c(=O)o1 (mixture of isomers) | 0.7
CCCCCCc1csc(C=C(C)C(=O)c2c(O)cc(C(C)CC/C=C/NC(=O)OC)oc2=O)c1C (mixture of isomers) | 6

// switching to the query compound
# query: MIC | item COC(=O)N/C=C/CCC(C)c1cc(O)c(C(=O)C(C)=Cc2ccc(CCC3CCCCC3)s2)c(=O)o1 (mixture of isomers) | system: Staphylococcus aureus ATCC 12600
2

---

# MIC listing for each entry below
System: Staphylococcus aureus ATCC 12600
# value in µg/mL; strip the unit string

COC(=O)N/C=C/CCC(C)c1cc(O)c(C(=O)C(C)=Cc2ccc(CCCCCF)s2)c(=O)o1 (stereo not shown) | 2
COC(=O)N/C=C/CCC(C)c1cc(O)c(C(=O)C(C)=Cc2ccc(OC(C)C)s2)c(=O)o1 (mixture of isomers) | 2
CCCCc1cc(C)c(C=C(C)C(=O)c2c(O)cc(C(C)CC/C=C/NC(=O)OC)oc2=O)s1 (mixture of isomers) | 0.3

// switching to the query compound
Quick one: MIC for COC(=O)N/C=C/CCC(C)c1cc(O)c(C(=O)C(C)=Cc2ccc(CCCCCC(F)(F)F)s2)c(=O)o1 (mixture of isomers) ?
10

---

# MIC listing for each entry below
Tested on: Burkholderia pseudomallei Human/Blood/OH/US/1994
test-description: microbe, parasite or virus in culture
Type: cell-based
test-settings: Burkholderia pseudomallei, read-out: MIC B. pseudomallei Human/Blood/OH

Quick one: MIC for CCCCc1ccc(C=C(C)C(=O)c2c(O)cc(C(C)CCCCNC(=O)OC)oc2=O)s1 (mixture of isomers) ?
> 50 µg/mL

Quick one: MIC for CCc1ccc(C=C(C)C(=O)c2c(O)cc(C(C)CC/C=C/NC(=O)OC)oc2=O)s1 (mixture of isomers) ?
> 50 µg/mL

Quick one: MIC for CCCCCCc1ccc(C=C(C)C(=O)c2c(O)cc(C(C)CC/C=C/NC(=O)OC)oc2=O)cn1 (mixture of isomers) ?
> 50 µg/mL

Quick one: MIC for CCCCCCc1ccc(C=C(C)C(=O)c2c(O)cc(C(C)CC/C=C/NC(=O)OC)oc2=O)cc1 (mixture of isomers) ?
6 µg/mL

---

target-desc: E. coli RNA polymerase σ^70 holoenzyme (Escherichia coli, UniProt P0A8T7+P0A8V2)
Sequence (P0A8T7 whole entry): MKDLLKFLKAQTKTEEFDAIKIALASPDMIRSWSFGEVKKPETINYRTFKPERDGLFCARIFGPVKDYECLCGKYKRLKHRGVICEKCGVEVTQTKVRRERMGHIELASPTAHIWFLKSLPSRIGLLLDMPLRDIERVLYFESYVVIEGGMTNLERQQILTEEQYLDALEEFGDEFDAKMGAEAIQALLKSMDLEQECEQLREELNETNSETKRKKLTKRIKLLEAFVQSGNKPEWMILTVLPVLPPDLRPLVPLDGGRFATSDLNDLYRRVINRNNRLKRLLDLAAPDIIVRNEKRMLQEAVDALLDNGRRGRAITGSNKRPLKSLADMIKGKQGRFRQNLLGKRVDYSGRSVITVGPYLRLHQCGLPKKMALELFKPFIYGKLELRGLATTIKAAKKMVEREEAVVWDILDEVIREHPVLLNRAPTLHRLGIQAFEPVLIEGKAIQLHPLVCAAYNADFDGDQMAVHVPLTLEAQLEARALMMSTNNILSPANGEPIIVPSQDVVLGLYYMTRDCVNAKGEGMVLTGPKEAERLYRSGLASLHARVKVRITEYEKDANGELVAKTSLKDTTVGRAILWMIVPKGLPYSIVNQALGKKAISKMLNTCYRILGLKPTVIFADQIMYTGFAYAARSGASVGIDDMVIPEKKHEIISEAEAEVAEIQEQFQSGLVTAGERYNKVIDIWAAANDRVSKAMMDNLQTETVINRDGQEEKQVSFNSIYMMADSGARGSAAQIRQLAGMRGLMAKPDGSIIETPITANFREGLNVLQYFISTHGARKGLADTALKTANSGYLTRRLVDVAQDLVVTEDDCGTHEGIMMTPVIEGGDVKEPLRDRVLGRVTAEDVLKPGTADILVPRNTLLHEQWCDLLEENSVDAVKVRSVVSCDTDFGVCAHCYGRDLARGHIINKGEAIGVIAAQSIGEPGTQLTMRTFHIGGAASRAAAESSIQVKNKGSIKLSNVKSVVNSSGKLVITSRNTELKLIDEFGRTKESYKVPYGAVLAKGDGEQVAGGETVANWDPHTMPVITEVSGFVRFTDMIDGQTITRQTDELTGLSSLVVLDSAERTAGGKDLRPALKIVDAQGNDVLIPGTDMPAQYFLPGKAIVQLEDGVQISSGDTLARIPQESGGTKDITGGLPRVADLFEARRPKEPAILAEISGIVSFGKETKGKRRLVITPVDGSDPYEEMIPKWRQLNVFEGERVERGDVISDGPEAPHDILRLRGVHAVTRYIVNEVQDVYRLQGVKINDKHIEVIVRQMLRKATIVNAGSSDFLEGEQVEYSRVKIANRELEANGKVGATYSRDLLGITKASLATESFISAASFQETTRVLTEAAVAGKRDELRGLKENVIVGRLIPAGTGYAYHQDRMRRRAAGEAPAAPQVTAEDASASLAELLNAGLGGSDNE
Sequence (P0A800 whole entry, further chain): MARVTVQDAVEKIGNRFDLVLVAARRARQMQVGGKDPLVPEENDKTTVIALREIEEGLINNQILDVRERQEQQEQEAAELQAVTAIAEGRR
Sequence (P0A8V2 whole entry): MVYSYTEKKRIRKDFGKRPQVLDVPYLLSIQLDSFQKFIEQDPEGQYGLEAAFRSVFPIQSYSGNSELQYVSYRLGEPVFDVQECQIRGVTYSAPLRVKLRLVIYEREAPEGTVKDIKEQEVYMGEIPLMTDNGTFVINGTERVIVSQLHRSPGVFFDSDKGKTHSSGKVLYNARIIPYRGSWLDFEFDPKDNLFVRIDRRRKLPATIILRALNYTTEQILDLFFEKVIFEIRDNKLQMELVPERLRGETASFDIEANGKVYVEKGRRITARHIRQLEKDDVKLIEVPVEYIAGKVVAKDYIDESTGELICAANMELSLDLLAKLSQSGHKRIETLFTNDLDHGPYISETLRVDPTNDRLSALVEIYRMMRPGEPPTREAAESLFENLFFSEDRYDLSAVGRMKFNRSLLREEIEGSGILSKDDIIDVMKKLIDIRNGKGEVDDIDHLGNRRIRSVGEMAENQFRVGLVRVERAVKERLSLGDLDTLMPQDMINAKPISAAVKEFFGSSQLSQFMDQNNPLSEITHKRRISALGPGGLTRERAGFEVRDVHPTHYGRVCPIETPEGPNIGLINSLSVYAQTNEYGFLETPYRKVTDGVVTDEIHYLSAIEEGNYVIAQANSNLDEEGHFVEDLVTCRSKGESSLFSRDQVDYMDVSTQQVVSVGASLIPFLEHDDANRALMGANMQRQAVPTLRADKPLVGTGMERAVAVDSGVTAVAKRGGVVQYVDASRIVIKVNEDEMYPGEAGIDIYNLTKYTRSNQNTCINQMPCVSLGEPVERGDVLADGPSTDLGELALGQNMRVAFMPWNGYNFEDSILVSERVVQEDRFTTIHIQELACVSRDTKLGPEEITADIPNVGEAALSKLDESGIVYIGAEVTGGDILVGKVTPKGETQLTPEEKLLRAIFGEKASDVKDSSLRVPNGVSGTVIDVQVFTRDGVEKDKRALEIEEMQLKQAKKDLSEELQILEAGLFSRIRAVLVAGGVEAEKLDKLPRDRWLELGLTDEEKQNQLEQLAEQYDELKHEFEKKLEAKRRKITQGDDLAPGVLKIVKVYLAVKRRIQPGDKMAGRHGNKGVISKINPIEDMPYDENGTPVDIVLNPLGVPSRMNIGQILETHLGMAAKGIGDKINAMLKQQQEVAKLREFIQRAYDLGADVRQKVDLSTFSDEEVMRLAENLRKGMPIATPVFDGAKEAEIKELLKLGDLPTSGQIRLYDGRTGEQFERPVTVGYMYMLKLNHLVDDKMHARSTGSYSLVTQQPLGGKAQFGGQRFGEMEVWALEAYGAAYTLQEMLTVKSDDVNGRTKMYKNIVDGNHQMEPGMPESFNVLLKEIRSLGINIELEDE
Sequence (P00579 whole entry, further chain): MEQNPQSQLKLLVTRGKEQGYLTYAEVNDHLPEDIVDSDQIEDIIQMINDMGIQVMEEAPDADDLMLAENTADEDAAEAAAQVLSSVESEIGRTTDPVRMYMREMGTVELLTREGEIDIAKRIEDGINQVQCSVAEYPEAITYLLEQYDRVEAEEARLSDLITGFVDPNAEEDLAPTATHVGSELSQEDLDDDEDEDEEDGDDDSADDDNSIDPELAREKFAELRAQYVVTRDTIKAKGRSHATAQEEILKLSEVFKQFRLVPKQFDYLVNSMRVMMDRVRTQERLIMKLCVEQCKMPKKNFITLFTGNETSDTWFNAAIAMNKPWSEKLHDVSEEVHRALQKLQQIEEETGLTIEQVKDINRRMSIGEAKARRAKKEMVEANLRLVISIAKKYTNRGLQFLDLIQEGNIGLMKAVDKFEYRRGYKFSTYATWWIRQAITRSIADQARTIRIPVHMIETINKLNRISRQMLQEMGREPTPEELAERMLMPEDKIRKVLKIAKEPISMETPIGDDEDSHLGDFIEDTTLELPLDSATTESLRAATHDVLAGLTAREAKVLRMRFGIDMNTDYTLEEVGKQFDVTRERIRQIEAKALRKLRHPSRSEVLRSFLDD
Sequence (P0A7Z4 whole entry, further chain): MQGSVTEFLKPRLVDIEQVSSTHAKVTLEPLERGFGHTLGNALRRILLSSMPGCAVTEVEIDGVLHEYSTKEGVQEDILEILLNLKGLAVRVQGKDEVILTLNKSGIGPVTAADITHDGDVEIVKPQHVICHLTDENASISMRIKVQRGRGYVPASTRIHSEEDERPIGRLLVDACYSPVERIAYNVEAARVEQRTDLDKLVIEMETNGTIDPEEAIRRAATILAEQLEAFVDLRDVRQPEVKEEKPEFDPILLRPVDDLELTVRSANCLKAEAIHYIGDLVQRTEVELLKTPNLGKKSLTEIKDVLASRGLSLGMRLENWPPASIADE
test-description: Fluorescence-detected RNA polymerase assay, E. coli RNA polymerase
test-settings: read-out: IC50 E. coli RNAP
# pIC50 listing for each entry below
Here pIC50 is given on a logarithmic scale as minus log10 of the concentration in mol/L.

Study these solved cases before continuing.
CCc1ccc2cc(C=C(C)C(=O)c3c(O)cc(C(C)CC/C=C/NC(=O)OC)oc3=O)oc2c1 (mixture of isomers) [APY110] | 6.70
COC(=O)N/C=C/CCC(C)c1cc(O)c(C(=O)C(C)=Cc2ccc(OCCC(C)(C)C)cc2)c(=O)o1 (mixture of isomers) [APY48] | 6.05
CCCc1cn(C)c(C=C(C)C(=O)c2c(O)cc(C(C)CC/C=C/NC(=O)OC)oc2=O)n1 (mixture of isomers) [APY143] | 6.00
COC(=O)N/C=C/CCC(C)c1cc(O)c(C(=O)C(C)=Cc2cnc(N3CCCCC3)s2)c(=O)o1 (centres unmarked) [APY142] | 6.22
COC(=O)N/C=C/CCC(C)c1cc(O)c(C(=O)C(C)=Cc2ccc(OCC(F)(F)F)cc2)c(=O)o1 (mixture of isomers) [APY117] | 7.00
COC(=O)N/C=C/CCC(C)c1cc(O)c(C(=O)C(C)=Cc2ccc(OC(C)C)cc2)c(=O)o1 (mixture of isomers) [APY66] | 6.00

Quick one: pIC50 for COC(=O)N/C=C/CCC(C)c1cc(O)c(C(=O)C(C)=Cc2ccc(CCC(F)(F)F)cc2C)c(=O)o1 (mixture of isomers) [APY127] ?
7.15

Quick one: pIC50 for COC(=O)N/C=C/CCC(C)c1cc(O)c(C(=O)C(C)=Cc2cc3ccc(CCC(F)(F)F)cc3s2)c(=O)o1 (mixture of isomers) [APY114] ?
6.52

Quick one: pIC50 for CCCCc1ccc2cc(C=C(C)C(=O)c3c(O)cc(C(C)CC/C=C/NC(=O)OC)oc3=O)sc2c1 (mixture of isomers) [APY86] ?
7.70

Quick one: pIC50 for CCCCc1ccc(C=C(CC)C(=O)c2c(O)cc(C(C)CC/C=C/NC(=O)OC)oc2=O)s1 (mixture of isomers) [APY21] ?
7.40

Quick one: pIC50 for COC(=O)N/C=C/CCC(C)c1cc(O)c(C(=O)C(C)=Cc2ccc(CCCCCF)s2)c(=O)o1 (centres unmarked) [APY97] ?
7.70

---

target-desc: S. aureus RNA polymerase core enzyme, S. aureus σ^A (Staphylococcus aureus, UniProt P47768+Q2G0N5)
test-description: Fluorescence-detected RNA polymerase assay, S. aureus RNA polymerase
test-settings: read-out: IC50 S. aureus RNAP
pIC50: −log10 of the molar value.
Lab note: anything with pIC50 at or over 7 counts as True; the rest go in False.

# example entries with known answers
COC(=O)N/C=C/CCC(C)c1cc(O)c(C(=O)C(C)=Cc2ccc(CCCCCF)s2)c(=O)o1 (stereo not shown) [APY97] | False
CCCCCCc1cccc(C=C(C)C(=O)c2c(O)cc(C(C)CC/C=C/NC(=O)OC)oc2=O)c1 (mixture of isomers) [APY34] | True
COC(=O)N/C=C/CCC(C)c1cc(O)c(C(=O)C(C)=Cc2ccc(CCCC3CCCCC3)s2)c(=O)o1 (mixture of isomers) [APY32] | True
COC(=O)N/C=C/CCC(C)c1cc(O)c(C(=O)C(C)=Cc2ccc(CCC(C)C)s2)c(=O)o1 (mixture of isomers) [APY31] | True
CCCCCCc1coc(C=C(C)C(=O)c2c(O)cc(C(C)CC/C=C/NC(=O)OC)oc2=O)c1 (mixture of isomers) [APY19] | True

Evaluate CCCCCCc1ccc(C=C(C)C(=O)c2c(O)cc(C(C)CC/C=C/NC(=O)OC)oc2=O)cc1 (mixture of isomers) [APY33] : pIC50 at minimum 7?
True

---

System: Burkholderia pseudomallei Human/Blood/OH/US/1994
test-description: microbe, parasite or virus in culture
Format: cell-based
test-settings: Burkholderia pseudomallei, read-out: MIC B. pseudomallei Human/Blood/OH
readout-kind: MIC (µg/mL)
# value in µg/mL; strip the unit string

COC(=O)N/C=C/CCC(C)c1cc(O)c(C(=O)C(C)=Cc2ccc(CCCCCC(F)(F)F)s2)c(=O)o1 (mixture of isomers) | 6

// switching to the query compound
# query: MIC | item COC(=O)N/C=C/CCC(C)c1cc(O)c(C(=O)C(C)=Cc2ccc(CCC(C)C)cc2)c(=O)o1 (mixture of isomers) | system: Burkholderia pseudomallei Human/Blood/OH/US/1994
50

---

# MIC listing for each entry below
System: Staphylococcus aureus ATCC 12600
# value in µg/mL; strip the unit string

CCCCc1ccc2c(c1)cc(C=C(C)C(=O)c1c(O)cc(C(C)CC/C=C/NC(=O)OC)oc1=O)n2C (mixture of isomers) [APY104] | 5

// switching to the query compound
# query: MIC | item CCCCCCc1ccc(C=C(C)C(=O)c2c(O)cc(C(C)CC/C=C/NC(=O)OC)oc2=O)o1 (mixture of isomers) [APY17] | system: Staphylococcus aureus ATCC 12600
8

---

Tested on: Burkholderia pseudomallei Human/Blood/OH/US/1994
test-description: microbe, parasite or virus in culture
Type: cell-based
test-settings: Burkholderia pseudomallei, read-out: MIC B. pseudomallei Human/Blood/OH
# MIC listing for each entry below
# value in µg/mL; strip the unit string

CCCCOc1ccc(C=C(C)C(=O)c2c(O)cc(C(C)CC/C=C/NC(=O)OC)oc2=O)cc1 (mixture of isomers) | 50

// switching to the query molecule
Quick one: MIC for CCCCc1ccc(C=C(C)C(=O)c2c(O)cc(C(C)CC/C=C/NC(=O)OC)oc2=O)s1 (mixture of isomers) ?
6

---

# MIC listing for each entry below
Test system: Francisella tularensis SCHU4
test-description: microbe, parasite or virus in culture
Assay type: cell-based
test-settings: Francisella tularensis, SCHU4, read-out: MIC F. tularensis SCHU4

Study these solved cases before continuing.
COC(=O)N/C=C/CCC(C)c1cc(O)c(C(=O)C(C)=Cc2ccc(CCCC(F)(F)F)s2)c(=O)o1 (mixture of isomers) | 30 µg/mL
CCCCc1cc(C)c(C=C(C)C(=O)c2c(O)cc(C(C)CC/C=C/NC(=O)OC)oc2=O)s1 (mixture of isomers) | 10 µg/mL
COC(=O)N/C=C/CCC(C)c1cc(O)c(C(=O)C(C)=Cc2ccc(OCCC(C)(C)C)cc2)c(=O)o1 (mixture of isomers) | 10 µg/mL
CCCCCCc1ccc(C=C(C)C(=O)c2c(O)cc(C(C)CC/C=C/NC(=O)OC)oc2=O)cc1 (mixture of isomers) | 3 µg/mL
CCCCc1ccc(C=C(C)C(=O)c2c(O)cc(C(C)CC/C=C/NC(=O)OC)oc2=O)s1 (mixture of isomers) | 0.8 µg/mL

Quick one: MIC for CCCCCc1ccc(C=C(C)C(=O)c2c(O)cc(C(C)CC/C=C/NC(=O)OC)oc2=O)cc1 (mixture of isomers) ?
10 µg/mL

Quick one: MIC for CCCCOc1ccc(C=C(C)C(=O)c2c(O)cc(C(C)CC/C=C/NC(=O)OC)oc2=O)cc1 (mixture of isomers) ?
30 µg/mL

Quick one: MIC for COC(=O)N/C=C/CCC(C)c1cc(O)c(C(=O)C(C)=Cc2cccc(OCCC(C)(C)C)c2)c(=O)o1 (mixture of isomers) ?
30 µg/mL

Quick one: MIC for CCCCCCc1csc(C=C(C)C(=O)c2c(O)cc(C(C)CC/C=C/NC(=O)OC)oc2=O)c1C (mixture of isomers) ?
3 µg/mL

Quick one: MIC for CCCc1ccc(C=C(C)C(=O)c2c(O)cc(C(C)CC/C=C/NC(=O)OC)oc2=O)s1 (mixture of isomers) ?
50 µg/mL

Quick one: MIC for CCC(C)Oc1ccc2c(c1)cc(C=C(C)C(=O)c1c(O)cc(C(C)CC/C=C/NC(=O)OC)oc1=O)n2C (stereo not shown) ?
50 µg/mL

Quick one: MIC for C=CCCCCc1ccc(C=C(C)C(=O)c2c(O)cc(C(C)CC/C=C/NC(=O)OC)oc2=O)s1 (mixture of isomers) ?
10 µg/mL

Quick one: MIC for COC(=O)N/C=C/CCC(C)c1cc(O)c(C(=O)C(C)=Cc2ccc(OCC(F)F)cc2)c(=O)o1 (mixture of isomers) ?
> 50 µg/mL

Quick one: MIC for CCc1ccc(C=C(C)C(=O)c2c(O)cc(C(C)CC/C=C/NC(=O)OC)oc2=O)cc1 (mixture of isomers) ?
> 50 µg/mL

Quick one: MIC for CCCCc1ccc2sc(C=C(C)C(=O)c3c(O)cc(C(C)CC/C=C/NC(=O)OC)oc3=O)cc2c1 (mixture of isomers) ?
2 µg/mL

Quick one: MIC for CCCCc1ccc(C=CC(=O)c2c(O)cc(C(C)CC/C=C/NC(=O)OC)oc2=O)s1 (mixture of isomers) ?
6 µg/mL

Quick one: MIC for CCCc1ccc(C=C(C)C(=O)c2c(O)cc(C(C)CC/C=C/NC(=O)OC)oc2=O)cc1 (mixture of isomers) ?
> 50 µg/mL

Quick one: MIC for COC(=O)N/C=C/CCC(C)c1cc(O)c(C(=O)C(C)=Cc2cc3cc(OC(C)C)ccc3n2C)c(=O)o1 (mixture of isomers) ?
> 50 µg/mL

Quick one: MIC for COC(=O)N/C=C/CCC(C)c1cc(O)c(C(=O)C(C)=Cc2ccc(OC(C)C)cc2)c(=O)o1 (mixture of isomers) ?
> 50 µg/mL

Quick one: MIC for COC(=O)N/C=C/CCC(C)c1cc(O)c(C(=O)C(C)=Cc2ccc(OCCC(F)(F)F)s2)c(=O)o1 (mixture of isomers) ?
> 50 µg/mL

Quick one: MIC for CCCCOc1ccc(C=C(C)C(=O)c2c(O)cc(C(C)CC/C=C/NC(=O)OC)oc2=O)c(C)c1 (mixture of isomers) ?
> 50 µg/mL

Quick one: MIC for COC(=O)N/C=C/CCC(C)c1cc(O)c(C(=O)C(C)=Cc2ccc(CCC(C)C)s2)c(=O)o1 (mixture of isomers) ?
6 µg/mL

Quick one: MIC for CCCCCc1ccc(C=C(C)C(=O)c2c(O)cc(C(C)CC/C=C/NC(=O)OC)oc2=O)s1 (mixture of isomers) ?
10 µg/mL

Quick one: MIC for CCCCc1ncc(C=C(C)C(=O)c2c(O)cc(C(C)CC/C=C/NC(=O)OC)oc2=O)s1 (mixture of isomers) ?
> 50 µg/mL

Quick one: MIC for COC(=O)N/C=C/CCC(C)c1cc(O)c(C(=O)C(C)=Cc2ccc(OCC(C)(C)C)cc2)c(=O)o1 (mixture of isomers) ?
30 µg/mL
